Source of measurements: the Immune Epitope Database (IEDB)

target: HLA-A*24:02; assay: IEDB peptide-MHC binding, purified MHC/competitive/radioactivity; filed as Kd, often an IC50 or EC50 that approximates it; bounds were set here for any values at or beyond the usual limits of such assays; conditions: source organism: Dengue virus 1 Brazil/97-11/1997
quantity.kind: pKd
Expect pKd as a plain number equal to -log10 of the molar concentration.

// sample LMLLPTALAF , its pKd was 5.35

---

Here the recorded Kd is given for each entry.
target: HLA-B*40:01; assay: IEDB peptide-MHC binding, purified MHC/competitive/radioactivity; filed as Kd, often an IC50 or EC50 that approximates it; bounds were set here for any values at or beyond the usual limits of such assays; details: source organism: Dengue virus 2 Jamaica/1409/1983
Write your answer as a measured quantity: the number, then the unit.

{"columns": ["residue.string", "experimental.system", "obs.value"],
 "data": [
  ["GEYRLRGEAR", "HLA-B*40:01", "1900 nM"],
  ["AEISGSSPIL", "HLA-B*40:01", "1.04 nM"],
  ["SELPETLETL", "HLA-B*40:01", "7.2 nM"]
]}

// sample SENEVKLTIM , its Kd was 974 nM

---

target: HLA-C*04:01; assay: IEDB peptide-MHC binding, purified MHC/competitive/fluorescence; filed as Kd, often an IC50 or EC50 that approximates it; bounds were set here for any values at or beyond the usual limits of such assays; settings: source organism: Mycobacterium tuberculosis C
quantity.kind: Kd

// sample RLYELIGSV , its Kd was ≥ 5 µM

---

target: HLA-A*11:01; experiment: IEDB peptide-MHC binding, purified MHC/direct/fluorescence; filed as Kd, often an IC50 or EC50 that approximates it; bounds were set here for any values at or beyond the usual limits of such assays; conditions: source organism: Bacillus cereus G9842
quantity.kind: Kd

Here MFKNFPFFK was tested on HLA-A*11:01, and its Kd came to ≤ 1 nM

---

biological target: HLA-B*40:01; experiment: IEDB peptide-MHC binding, purified MHC/direct/fluorescence; filed as Kd, often an IC50 or EC50 that approximates it; bounds were set here for any values at or beyond the usual limits of such assays; conditions: source organism: Vibrio vulnificus
quantity.kind: Kd (nM)
Unit nM implied. Number only.

// sample IEFIEVVRL , its Kd was 37.7

---

target: HLA-A*29:02; test: IEDB peptide-MHC binding, purified MHC/competitive/radioactivity; filed as Kd, often an IC50 or EC50 that approximates it; bounds were set here for any values at or beyond the usual limits of such assays; conditions: source organism: Mammarenavirus tacaribeense
quantity.kind: Kd (µM)
Unit µM implied. Number only.

// sample CWFADKNLI , its Kd was 3.15

---

Here the recorded Kd is given for each entry.
biological target: HLA-B*40:01; experiment: IEDB peptide-MHC binding, purified MHC/competitive/radioactivity; filed as Kd, often an IC50 or EC50 that approximates it; bounds were set here for any values at or beyond the usual limits of such assays; details: source organism: Mammarenavirus lassaense
Write your answer as a measured quantity: the number, then the unit.

Example sequences with recorded Kd:
{"columns": ["residue.string", "experimental.system", "obs.value"],
 "data": [
  ["EELITDVEFL", "HLA-B*40:01", "3.12 µM"],
  ["YDFVLVGPC", "HLA-B*40:01", "3.34 µM"],
  ["GEPKMTKAL", "HLA-B*40:01", "1.77 µM"]
]}

// sample NENPGGYCL , its Kd was 4.92 µM

---

target: HLA-B*57:01; assay: IEDB peptide-MHC binding, purified MHC/competitive/radioactivity; filed as Kd, often an IC50 or EC50 that approximates it; bounds were set here for any values at or beyond the usual limits of such assays; settings: source organism: Dengue virus 4 Philippines/H241/1956
Consider the cut-off 900 nM. If the recorded Kd is strictly smaller, the label is yes; if not, the label is no.

{"columns": ["residue.string", "assigned.category"],
 "data": [
  ["VSSVNTTSKM", "no"],
  ["GSSPIIEVKQ", "no"],
  ["GSSKIRWIVE", "yes"],
  ["MTTTANWLW", "yes"]
]}

Proceed to the following item.
Exercise: Hello, I'm reviewing records and need to know if Kd of KAIKILTGF is below 900 nM. Could you check?
Key: yes

---

Here the recorded pKd is given for each entry.
target: HLA-A*30:02; experiment: IEDB peptide-MHC binding, purified MHC/competitive/radioactivity; filed as Kd, often an IC50 or EC50 that approximates it; bounds were set here for any values at or beyond the usual limits of such assays; conditions: source organism: SARS coronavirus Tor2
Expect pKd as a plain number equal to -log10 of the molar concentration.

{"columns": ["residue.string", "obs.value"],
 "data": [
  ["RLSFKELLVY", 6.65],
  ["FNAPALQEAY", 6.47],
  ["SSLPSYAAY", 9.57],
  ["VYRGTTTYKL", 5.16],
  ["MFLARAIVF", 4.78]
]}

Here SASKSASVY was tested on HLA-A*30:02, and its pKd came to 6.41

Here TEETFKLSY was tested on HLA-A*30:02, and its pKd came to 5.44

Here LFLAFVVFLL was tested on HLA-A*30:02, and its pKd came to 5.70

Here VDSSQGSEY was tested on HLA-A*30:02, and its pKd came to 5.70

Here VIEGPTTCGY was tested on HLA-A*30:02, and its pKd came to 7.58

Here AMDEFIQRY was tested on HLA-A*30:02, and its pKd came to 5.86

---

biological target: HLA-A*26:01; assay: IEDB peptide-MHC binding, purified MHC/competitive/radioactivity; filed as Kd, often an IC50 or EC50 that approximates it; bounds were set here for any values at or beyond the usual limits of such assays; conditions: source organism: Lymphocytic choriomeningitis virus (strain Armstrong)
quantity.kind: Kd

// sample NANAYSGKY , its Kd was 4.31 µM

---

target: HLA-B*15:01; assay: IEDB peptide-MHC binding, purified MHC/direct/fluorescence; filed as Kd, often an IC50 or EC50 that approximates it; bounds were set here for any values at or beyond the usual limits of such assays; conditions: source organism: Rickettsia bellii RML369-C
pKd: −log10 of the molar value.
quantity.kind: pKd

// sample NPLEIYQEI , its pKd was ≤ 4.70

---

target: HLA-A*02:12; test: IEDB peptide-MHC binding, purified MHC/direct/fluorescence; filed as Kd, often an IC50 or EC50 that approximates it; bounds were set here for any values at or beyond the usual limits of such assays; details: source organism: Choclo virus
quantity.kind: Kd

Here LRYGNVLDV was tested on HLA-A*02:12, and its Kd came to ≥ 20 µM

---

biological target: HLA-B*58:01; experiment: IEDB peptide-MHC binding, purified MHC/direct/fluorescence; filed as Kd, often an IC50 or EC50 that approximates it; bounds were set here for any values at or beyond the usual limits of such assays; details: source organism: Vibrio vulnificus
pKd: −log10 of the molar value.
Here the recorded pKd is given for each entry.

{"columns": ["residue.string", "experimental.system", "quantity.kind", "obs.value"],
 "data": [
  ["IEFIEVVRL", "HLA-B*58:01", "pKd", "≤ 4.70"]
]}

// sample YQRALHTSI , its pKd was ≤ 4.70

---

target: HLA-A*69:01; assay: IEDB peptide-MHC binding, purified MHC/competitive/fluorescence; filed as Kd, often an IC50 or EC50 that approximates it; bounds were set here for any values at or beyond the usual limits of such assays; conditions: source organism: Zaire ebolavirus
quantity.kind: Kd

{"columns": ["residue.string", "Kd"],
 "data": [
  ["LEARVNLSV", "≥ 20 µM"]
]}

API: the following record is the query input.
// sample HLPGFGTAF , its Kd was ≥ 20 µM

---

biological target: HLA-B*07:02; test: IEDB peptide-MHC binding, purified MHC/competitive/radioactivity; filed as Kd, often an IC50 or EC50 that approximates it; bounds were set here for any values at or beyond the usual limits of such assays; settings: source organism: Dengue virus 1 Brazil/97-11/1997
Here the recorded log10(Kd) is given for each entry.
Remember, log10 of Kd, in nM.

{"columns": ["residue.string", "log10(Kd)"],
 "data": [
  ["TPMMRHTIEN", 3.29],
  ["QPHQLWTTL", 0.54],
  ["DPRRCLKPV", 2.35]
]}

// sample MPVTVASAA , its log10(Kd) was 2.08

// sample HPGFTVIAL , its log10(Kd) was 0.50

---

molecular target: HLA-A*26:01; experiment: IEDB peptide-MHC binding, purified MHC/direct/fluorescence; filed as Kd, often an IC50 or EC50 that approximates it; bounds were set here for any values at or beyond the usual limits of such assays; details: source organism: Rickettsia bellii RML369-C
pKd: −log10 of the molar value.
quantity.kind: pKd

// sample NPLEIYQEI , its pKd was ≤ 4.70
